# Tested on: MS2 coat protein
# assay: apparent KD of MS2 coat protein; designed switch direction (-1 OFF switch, 1 ON switch): -1; higher = weaker reporter binding
# condition.context: input ligand: FMN 200 uM
Tag: True if measured apparent KD of MS2 coat protein is not below 60 nM, False if it is.

Would you please look over these solved cases?
| sequence.code | assigned.class |
| --- | --- |
| AACAGUACAGGAUAUACAUGAGGAUCACCCAUGUGAGAAUUAUGUGGCGUACCACAAAGUAGAAGGGUACUGGA [JL Maslow Revisted mod 3] (Eterna round: R96, puzzle: Exclusion 3) | True |
| CACCGUUACAGAGGAUAUGGUACAUGAGGAUCACCCAUGUAAUAAAUGAGAAUUUCGAAUGUAAUCCAGAAGGCUGGAAUCGGC [Ostricism 74 - Jieux - Exclusion NG 2] (Eterna round: R96, puzzle: Exclusion NG 2) | True |

q: Identify whether the reported apparent KD of MS2 coat protein of the following sequence is 60 nM or greater: GUCUAACAUGAGGAUCACCCAUGUCAGGAUAUGCGAAUUUCAUCAAAAGAUGAAAUUUGCAGAAGGGACUAGAC [Omei Ex1 A28] (Eterna round: R97, puzzle: Exclusion 1)
a: False

q: Answer whether apparent KD of MS2 coat protein of AUGCCGGUCCUCUCAGGUGUACAUGAGGAUCACCCAUGUCACGAGGAUAUCUAAGCGUGGUGGCCAGAGAAGGUGUGACAUGCU [Atibequ] (Eterna round: R96, puzzle: Exclusion NG 3) is greater than or equal to 60 nM.
a: False

q: Reported apparent KD of MS2 coat protein reaches at least 60 nM for GUAUAGCUAAAGGAUAUUCUCCGACGACGUGAAGAAGAAGGUUGGACAUGAGGAUCACCCAUGUGUACAGGAUA [Eternabot (L2) Solution 62] (Eterna round: R97, puzzle: Exclusion 6) ?
a: False

q: Does the sequence ACUGGUCGAGGAUAUAUAUGACGUGCUUCGGCACGAAGAUCACAUGAGGAUCACCCAUGUAGAAGGCGACCAGU [E2/8-A2] (Eterna round: R97, puzzle: Exclusion 2) have recorded apparent KD of MS2 coat protein that is 60 nM or more?
a: True

q: // inclusive: apparent KD of MS2 coat protein at least 60 nM? input: AAAAUUGGUGAGGAUAUGCAGAUGCGCAAUGUCGCAGAAGGCACCACAUGAGGAUCACCCAUGUGUCCUCUAAA [EX6 A.19] (Eterna round: R97, puzzle: Exclusion 6)
a: False

q: Assess whether reported apparent KD of MS2 coat protein for AAUGUGUGAGGAUAUUAGUUGUACGUCAAUAGACGUAUAAGUGAGAAGGCACAUGAGGAUCACCCAUGUUCCUG [Omei Ex4 Mod of Mat's R95 mod of Omei v6] (Eterna round: R97, puzzle: Exclusion 4) sits at 60 nM or higher.
a: True

====

# Tested on: MS2 coat protein
# assay: apparent KD of MS2 coat protein; designed switch direction (-1 OFF switch, 1 ON switch): 1; higher = weaker reporter binding
# condition.context: input ligand: none
quantity.name: apparent KD of MS2 coat protein
Field: value (include unit after the number)

| sequence.code | apparent KD of MS2 coat protein |
| --- | --- |
| UGGUACAUGGGAGGAUAUCAUGUAGACAUGAGGAUCACCCAUGUAGCCAUGGAGACAUGGGAGAAUGAGAAGGCCCAUGUACCU [JL SSNG1 3.54] (Eterna round: R96, puzzle: Same State NG 2) | 104 nM |

# batch size: 2; output apparent KD of MS2 coat protein per entry
1. GCGUUUAACGUAGGAUAUCGAGCUACAUGAGGAUCACCCAUGUCUUUGUAAAGUUUUUUUAAUUACGAGAAGGACGUUUUGCAU [JR_SSNG2_Sub072] (Eterna round: R96, puzzle: Same State NG 2)
2. GGUGGGUUACUACCCACACAUGAGGAUCACCCAUGUUUUGGGAAGGAUAUGGUACCUAUUUGGUACCAGAAGGUCCUGUUGGUG [SS-NG3-LRO14] (Eterna round: R96, puzzle: Same State NG 3)

a:
["35.8 nM", "1020 nM"]

# per-item lookup of apparent KD of MS2 coat protein; items listed below
1. CCGAAAGGAGUAGGAUAUGUAGGAUAUGCCUACAUGAGGAUCACCCAUGUUCGCAUGGCAGAAGGACAGAAGGACACGGAAACG [pwkr ssNG2 2FMN + 1F5.12] (Eterna round: R96, puzzle: Same State NG 2)
2. GUACAGAUCAGAGGAUAUCACGUCGAAUAGACGUGAGAAGGCUGAUCACACAUGAAUAUUAGUACAUGAGGAUCACCCAUGUAC [SSNG1/15-A1] (Eterna round: R96, puzzle: Same State NG 1)
3. AGGCUCAGACGAGGAUAUAUGCGAUCACAUGAGGAUCACCCAUGUCUCGAGCUUCGGCUCGAGGCAUAGAAGGUGUCUGAGCCA [SSNG2/4-C1] (Eterna round: R96, puzzle: Same State NG 2)
4. ACUCUCACAGUAGGAUAUGUAGGAUAUGCCUACAUGAGGAUCACCCAUGUAAACAUGGCAGAAGGAUAGAAGGACUUACAUGGG [pwkr ssNG2 2FMN + 1F5.4] (Eterna round: R96, puzzle: Same State NG 2)
5. AAAGUGCCGACGAAGGAUAUAGCGGGUGAGACAUGAGGAUCACCCAUGUAUGCAGAACUCAUCCUCUAGAAGGUUGAGACGGCUA [Bionlateat] (Eterna round: R96, puzzle: Same State 2)

a:
1. 293 nM
2. 18 nM
3. 126 nM
4. 196 nM
5. 95.9 nM

====

# Tested on: MS2 coat protein
# assay: apparent KD of MS2 coat protein; higher = weaker reporter binding
# condition.context: Eterna round: R107; input ligand: arginine 13.2 mM
quantity.name: apparent KD of MS2 coat protein (nM)
Answers are plain numbers, in nM.

Consider the reported apparent KD of MS2 coat protein for these sequences:
| sequence.code | numeric.result |
| --- | --- |
| GCACAAGAUGGAAGGAGCGCUGGAAAAGGUCACAUGAGGAUCACCCAUGUUCUCCGAACCGAGCAGGUAGGUCGCUAUCUUGUGC [#09 Same State - Arginine B] | 37.5 |
| UGUAUGUGAUCUGAUACCAGUCCAACUGGUAAAGCAUGAGGAACACCCAUGCAAAAUUGGGACCCUUGGCAGCAGAUCGCAUACU | 169 |
| CCCUGGGUGGGAAGGAGCGCAUAUUCAACAUGAGGAUCACCCAUGUACAGACGUGAGUCAUUGCAGGUAGGUCGCCCACCCAGGG [SS-ArgB21] | 12.9 |
| AUGUCGUUGAAUAUAGCGGCUUGGAGUGAUACCAGAAUGAUCUAAUUCCCUUGGCAGCAUUACAUGAGGAUCACCCAUGUUCCAG [SSTheo A #22] | 27.8 |

Parameters: items (list). Returns: apparent KD of MS2 coat protein for each item.
1. UUAAGAGGCUAUCAAAUUUGAUUUUGUGAUACCAGAAUAAUUUUAUUCCCUUGGCAGCAUGACAUGAGGAUCACCCAUGUGUCUU [SSTheo A #2]
2. UAAUCAGUGCCGGUUCUCGGAUCCUCAUGUCGAGGACCGGUACGGCCGCCACUCGGAACAUGAGGAUCACCCAUGUAAUAAUAAU [#10 Exclusion Tryptophan A]

a:
[33.8, 40.7]

====

Field: apparent KD of MS2 coat protein. Provide a value for each of the sequences that follow.
# Tested on: MS2 coat protein
# assay: apparent KD of MS2 coat protein; higher = weaker reporter binding
# condition.context: Eterna round: R107; input ligand: theophylline 20 uM
Answers are plain numbers, in µM.

In the examples that follow, each entry is paired with its recorded apparent KD of MS2 coat protein.
| sequence.code | scale.unit | apparent KD of MS2 coat protein |
| --- | --- | --- |
| UGACAUUGCUGCGAUACCAGACAUGAGGAUCACCCAUGUACCAAGGUACCCGAAAGGAAUGUCCCUUGGCAGCGCAGCAAUGUCU [MAT - Exclusion Theophlline B - Mod of Eli - D18] | µM | 0.0116 |
| GUUAUAUCAAAAGAUGUAACAGUGGGUGAACGAGGACCGGUACGGCCGCCACUCGGACAUGAGGAUCACCCAUGUCCAUGUGAAA [AstrosExyTryA#14] | µM | 0.0175 |

In the following, a different sequence is considered.
q: I would be grateful if you could share the reported apparent KD of MS2 coat protein for AGAAAGAAACAAAACUCAAGGAGAACCGAAGGAGCGGCGAAAGAGCCAGGUAGGUCGCGGUCCUCAACAUGAGGAUCACCCAUGU .
a: 0.0835

====

# Test system: MS2 coat protein
# assay: apparent KD of MS2 coat protein; designed switch direction (-1 OFF switch, 1 ON switch): -1; higher = weaker reporter binding
# condition.context: input ligand: none
Task for the reader: assign each of the following sequences its reported apparent KD of MS2 coat protein.
Answers are plain numbers, in nM.

See these solved cases before continuing.
| sequence.code | experimental.system | quantity.name | numeric.result |
| --- | --- | --- | --- |
| GCGCGAAGGUAGGAUAUCGAGGGAUCUUCCCGCCGAGAAGGACCCACAUGAGGAUCACCCAUGUGGUGAUCCUG [eternacac ex6r4 sub9] (Eterna round: R97, puzzle: Exclusion 6) | MS2 coat protein | apparent KD of MS2 coat protein | 49.4 |
| AAGAGGAUCAAAGGAUAUGGAGCUGAAACGGCGCUAGAAGGUUGUCCAGUGUAACAUGAGGAUCACCCAUGUAGGGACCUCUAA [AK ExNG1-V2-3] (Eterna round: R96, puzzle: Exclusion NG 1) | MS2 coat protein | apparent KD of MS2 coat protein | 42.9 |
| CCUGCGGACAAAGGAUAUUGCGGUGGCCGGCUCGGCGUACCGAGCCUACAUGAGGAUCACCCAUGUAAGAAGGUUGUCGUUGGU [JL ViennaUCT Qudice mod] (Eterna round: R96, puzzle: Exclusion NG 2) | MS2 coat protein | apparent KD of MS2 coat protein | 33.5 |

Give apparent KD of MS2 coat protein for all sequences that follow.
1. GCAAGCUUUUGCUCGUCUUACAUGAGGAUCACCCAUGUUGGGUCCGGUCGCCGCGGCCGGGCCGGCCGGGCGCCGGG [-38, -65.5 kcal, A 10%] (Eterna round: R97, puzzle: Sensor, turn-off variant 1)
2. AAUAAUAGCGAGGAUAUCGUAUCGGAAACGAUACGAGAAGGCGUAACAUGAGGAUCACCCAUGUGUCCUCAAAA [Mat - Exclusion 6 - Eli Mod - D7] (Eterna round: R97, puzzle: Exclusion 6)
3. ACAAGCUUGUAAUGAUUUAACAUGAGGAUCACCCAUGUAAAUGGAAGAACCAAUUUGAUAUGAUUUACUCGUCUUAU [JR_STOV1_Sub008] (Eterna round: R97, puzzle: Sensor, turn-off variant 1)
4. UUAUAUAGGUAGGAUAUCGAUUUUAAUUAAUUUCGAGAAGGGUCAACAUGAGGAUCACCCAUGUCAGCAUGUAU [LRO-Excl6-05-Rocketman] (Eterna round: R97, puzzle: Exclusion 6)
5. AAAUUGUGAGGAUAUUCGAUGAACACGGAGACGUGUUUAUCGGAGAAGGCACAUGAGGAUCACCCAUGUUCCUU [Mat - Exclusion 4 - JL Mod - D24] (Eterna round: R97, puzzle: Exclusion 4)

a:
33.3
146
589
51.4
16.3

Okay, here is my list. What is apparent KD of MS2 coat protein for each of these?
1. CAUAUUGUAGGAUAUAUUCGAAAGGUCCUCUUCCCAUACCGACAUGAGGAUCACCCAUGUAGAAGGAUAGUGCC [Eternabot (L2) Solution 13] (Eterna round: R97, puzzle: Exclusion 2)
2. UGCGUACAUGAGGAUCACCCAUGUGAGGAUAUUUGGCAUCGCGAGUGCCCAAGGAGAUAGAGAAGGCAUAUGGA [Eternabot (L1) Solution 50] (Eterna round: R97, puzzle: Exclusion 1)
3. UAUUAGCAAGUGAGAUCCCACAUGAGGAUCACCCAUGUGCUCGUCUUAUAAGGUACUGUGACGAGAGUCACGGUACC [Mat - Sensor, turn-off var - Eli Mod - D2] (Eterna round: R97, puzzle: Sensor, turn-off variant 1)

a:
53.6
37.2
44.7
